Tested on: MARIMO;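 further: after 48 h exposure read by CellTiter-Glo luminescence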
Test: cell viability relative to vehicle control; higher = less cytotoxic
Conditions: 10 µM; SRSF2 genotype: SRSF2 wt/wt
Please use class 1 for cell viability under 90% and class 0 for everything else, ties included.

# compound, experimental system, class label
rows = [
    ("O=c1ccc2cc3ccoc3c(O)c2o1", "MARIMO", "class 0"),
    ("CC(=O)OC12COC1CC(O)C1(C)C(=O)C(O)C3=C(C)C(O)CC(O)(C(OC(=O)c4ccccc4)C21)C3(C)C (stereo not given)", "MARIMO", "class 0"),
    ("CCN1CC2(OC(=O)c3ccccc3NC(C)=O)CCC(OC)C34C1C(CC23)C1(O)CC(OC)C2CC4C1(O)C2OC (stereo not given) [Lappaconitine]", "MARIMO", "class 0"),
    ("CC(=O)O[C@H]1C[C@H](O[C@H]2[C@@H](O)C[C@H](O[C@H]3[C@@H](O)C[C@H](O[C@H]4CC[C@@]5(C)[C@H](CC[C@@H]6[C@@H]5C[C@@H](O)[C@]5(C)[C@@H](C7=CC(=O)OC7)CC[C@]65O)C4)O[C@@H]3C)O[C@@H]2C)O[C@H](C)[C@H]1O[C@@H]1O[C@H](CO)[C@@H](O)[C@H](O)[C@H]1O [Lanatoside C]", "MARIMO", "class 1"),
    ("CCN1CCN(C(=O)Cc2ccc(Nc3ncc(F)c(Nc4ccc(C(=O)Nc5ccccc5Cl)cc4)n3)cc2)CC1", "MARIMO", "class 1"),
    ("Cc1cc(C(C#N)c2ccc(Cl)cc2)c(Cl)cc1NC(=O)c1cc(I)cc(I)c1O (stereo not given)", "MARIMO", "class 0"),
    ("Cc1c(Cl)c(OCC(=O)N2CCN(C)CC2)nc2sc(C(=O)NC3CC3)c(N)c12", "MARIMO", "class 1"),
    ("O=C(O)CCCCCCCCCO [10-Hydroxydecanoic acid]", "MARIMO", "class 0"),
    ("O=C(NC(=O)c1c(F)cccc1F)Nc1ccc(OC(F)(F)C(F)OC(F)(F)F)c(Cl)c1 (stereo not given)", "MARIMO", "class 0"),
    ("C[N+]1(C)CCCC(OC(=O)C(O)(c2ccccc2)c2ccccc2)C1 (stereo not given) [mepenzolate bromide]", "MARIMO", "class 0"),
    ("CCC(C)C(=O)O[C@@H]1[C@@H](OC(C)=O)[C@]2(C)[C@H](C(C)=O)CC[C@@]23O[C@]32CC[C@H]3C[C@@H](O[C@H]4C[C@@H](OC)[C@H](O[C@@H]5O[C@H](C)[C@@H](O)[C@@H](OC)[C@H]5O)[C@@H](C)O4)CC[C@]3(C)[C@@H]12 (stereo not given in full) [Tenacissoside H]", "MARIMO", "class 0"),
    ("O=P1(N(CCCl)CCCl)NCCCO1 (stereo not given) [Cyclophosphamide monohydrate]", "MARIMO", "class 0"),
    ("CC(C)=CCCC(C)(O)C1CCC2(C)C1C(O)CC1C3(C)CCC(O)C(C)(C)C3C(OC3OC(CO)C(O)C(O)C3O)CC12C [(20R)-Ginsenoside Rh1]", "MARIMO", "class 0"),
    ("COc1cc(-n2c(=S)[nH]c3ccccc3c2=O)c(Cl)cc1Cl", "MARIMO", "class 0"),
    ("COC1=CC23CCN(C)C(Cc4ccc(OC)c(O)c42)C3=CC1=O (stereo not given)", "MARIMO", "class 0"),
    ("CCC1(c2ccc(N)cc2)CCC(=O)NC1=O (stereo not given) [Aminoglutethimide (Cytadren)]", "MARIMO", "class 0"),
    ("CC(=O)OC(C)(C)/C=C/C(=O)[C@](C)(O)[C@H]1[C@H](O)C[C@@]2(C)[C@@H]3CC=C4[C@H](C[C@H](O)C(=O)C4(C)C)[C@]3(C)C(=O)C[C@]12C", "MARIMO", "class 1"),
    ("CC(C)=CCCC(C)(O)C1CCC2(C)C1C(O)CC1C3(C)CCC(OC4OC(CO)C(O)C(O)C4O)C(C)(C)C3CCC12C [(20R)Ginsenoside Rh2]", "MARIMO", "class 0"),
    ("CC[N+](C)(CC)CCOC(=O)C(O)(c1ccccc1)c1ccccc1 [Methylbenactyzine Bromide]", "MARIMO", "class 0"),
    ("Cc1sc2c(c1C)C(c1ccc(Cl)cc1)=NC(CC(N)=O)c1nnc(C)n1-2 (stereo not given)", "MARIMO", "class 1"),
    ("NC(=O)CN1CC(c2ccccc2)CC1=O (stereo not given)", "MARIMO", "class 0"),
    ("NCC(CC(=O)O)c1ccccc1 (stereo not given)", "MARIMO", "class 0"),
    ("Nc1nc(N)nc(N)n1", "MARIMO", "class 0"),
    ("COc1ccc2c(c1OC)CC1c3c(cc4c(c3-2)OCO4)CCN1C (stereo not given)", "MARIMO", "class 1"),
    ("CC(C)(C)c1cc(C=C(C#N)C#N)cc(Br)c1O", "MARIMO", "class 0"),
    ("C=C(C)[C@H]1Cc2c(ccc3c2O[C@@H]2COc4cc(OC)c(OC)cc4[C@@H]2C3=O)O1", "MARIMO", "class 1"),
    ("CNCC(O)c1ccc(O)cc1 (stereo not given) [Synephrine (Oxedrine)]", "MARIMO", "class 0"),
]

Value source: the supplement of paper PMC10981050
